experiment: Pharmacokinetic study in normal control (NC) mice after oral administration of SMYAD; assay type: in vivo, mouse; conditions: NC mice, plasma, SMYAD intragastric 35 g/kg/d for seven days, mean ± SD, n = 5
ENDPOINT LABEL: CLz/F (L/h/mg)
Entry rule: numbers only, all in L/h/mg.

Name the recorded CLz/F of the compound listed here: O=C(/C=C/c1ccc(O)c(O)c1)O[C@@H]1C[C@](O)(C(=O)O)C[C@@H](O)[C@H]1O
30.37

Name the recorded CLz/F of the compound listed here: C=C[C@H]1[C@H](O[C@@H]2O[C@H](CO)[C@@H](O)[C@H](O)[C@H]2O)OC=C2C(=O)OCC[C@]21O
5.82

Name the recorded CLz/F of the compound listed here: O=C(/C=C/c1ccc(O)cc1)c1ccc(O)cc1O
33.51

Name the recorded CLz/F of the compound listed here: COc1ccc(CCO[C@@H]2O[C@H](CO[C@@H]3OC[C@H](O)[C@H](O)[C@H]3O)[C@@H](OC(=O)/C=C/c3ccc(O)c(OC)c3)[C@H](O[C@@H]3O[C@@H](C)[C@H](O)[C@@H](O)[C@H]3O)[C@H]2O)cc1O [Angoroside C, angoroside C]
29.75

----------
assay: Pharmacokinetic study in atherosclerosis (AS) model ApoE−/− mice after oral administration of SMYAD; format: in vivo, mouse; settings: male, ApoE−/− on a C57BL/6 background, mouse, po, 35 g/kg/day; AS mice, plasma, SMYAD intragastric 35 g/kg/d for seven days, mean ± SD, n = 5; read-out: C max
Listed next: entries and their corresponding Cmax.
Entry rule: numbers only, all in ng/mL.

COc1ccc(CCO[C@@H]2O[C@H](CO[C@@H]3OC[C@H](O)[C@H](O)[C@H]3O)[C@@H](OC(=O)/C=C/c3ccc(O)c(OC)c3)[C@H](O[C@@H]3O[C@@H](C)[C@H](O)[C@@H](O)[C@H]3O)[C@H]2O)cc1O [Angoroside C, angoroside C]	491
O=C(/C=C/c1ccc(O)c(O)c1)O[C@@H]1C[C@](O)(C(=O)O)C[C@@H](O)[C@H]1O	1130
O=C(/C=C/c1ccc(O)cc1)c1ccc(O)cc1O	135

Could you now look at the following molecule, please?
Name the recorded Cmax of the molecule listed here: C=C[C@H]1[C@H](O[C@@H]2O[C@H](CO)[C@@H](O)[C@H](O)[C@H]2O)OC=C2C(=O)OCC[C@]21O
1340

----------
assay: Pharmacokinetic study in normal control (NC) mice after oral administration of SMYAD; assay type: in vivo, mouse; details: male, C57BL/6J, mouse, po, 35 g/kg/day; NC mice, plasma, SMYAD intragastric 35 g/kg/d for seven days, mean ± SD, n = 5; read-out: t max
Listed next: entries and their corresponding Tmax.
Entry rule: numbers only, all in h.

C=C[C@H]1[C@H](O[C@@H]2O[C@H](CO)[C@@H](O)[C@H](O)[C@H]2O)OC=C2C(=O)OCC[C@]21O	5
O=C(/C=C/c1ccc(O)c(O)c1)O[C@@H]1C[C@](O)(C(=O)O)C[C@@H](O)[C@H]1O	1.13
O=C(/C=C/c1ccc(O)cc1)c1ccc(O)cc1O	1.9

Name the recorded Tmax of the molecule listed here: COc1ccc(CCO[C@@H]2O[C@H](CO[C@@H]3OC[C@H](O)[C@H](O)[C@H]3O)[C@@H](OC(=O)/C=C/c3ccc(O)c(OC)c3)[C@H](O[C@@H]3O[C@@H](C)[C@H](O)[C@@H](O)[C@H]3O)[C@H]2O)cc1O [Angoroside C, angoroside C]
0.85

----------
assay: Pharmacokinetic study in atherosclerosis (AS) model ApoE−/− mice after oral administration of SMYAD; assay type: in vivo, mouse; conditions: male, ApoE−/− on a C57BL/6 background, mouse, po, 35 g/kg/day; AS mice, plasma, SMYAD intragastric 35 g/kg/d for seven days, mean ± SD, n = 5; read-out: t 1/2 (converted)
ENDPOINT LABEL: half-life (h)
Entry rule: numbers only, all in h.

C=C[C@H]1[C@H](O[C@@H]2O[C@H](CO)[C@@H](O)[C@H](O)[C@H]2O)OC=C2C(=O)OCC[C@]21O	5.74
O=C(/C=C/c1ccc(O)c(O)c1)O[C@@H]1C[C@](O)(C(=O)O)C[C@@H](O)[C@H]1O	21.6
O=C(/C=C/c1ccc(O)cc1)c1ccc(O)cc1O	6.01

Could you now look at the following compound, please?
Name the recorded half-life of the compound listed here: COc1ccc(CCO[C@@H]2O[C@H](CO[C@@H]3OC[C@H](O)[C@H](O)[C@H]3O)[C@@H](OC(=O)/C=C/c3ccc(O)c(OC)c3)[C@H](O[C@@H]3O[C@@H](C)[C@H](O)[C@@H](O)[C@H]3O)[C@H]2O)cc1O [Angoroside C, angoroside C]
7.33

----------
Test: Pharmacokinetic study in normal control (NC) mice after oral administration of SMYAD
Assay type: in vivo, mouse
Conditions: male, C57BL/6J, mouse, po, 35 g/kg/day; NC mice, plasma, SMYAD intragastric 35 g/kg/d for seven days, mean ± SD, n = 5; read-out: AUC0–∞
Procedure: Male C57BL/6J mice and ApoE^−/− mice on a C57BL/6 background (7 weeks old, 18–22 g) were purchased from Beijing Vital River Laboratory Animal Technology Co., Ltd. (Beijing, China, Certificate No.: SCXK (Jing) 2016-0006). […] A Vanquish UHPLC™ system (Thermo Fisher Scientific Inc., USA) was used for the analysis. […] The quantitative analysis gradient program was as follows: 0-1 min, 0 B; 1–6 min, 0–100% B; 6–12 min, 100% B; 12–12.1 min, 100%-0 B; 12.1–15 min, 0 B. The injection volume was 5 μL. […]
Listed next: entries and their corresponding AUC(0-inf).
Entry rule: numbers only, all in ng·h/mL.

Sample records with AUC(0-inf):
COc1ccc(CCO[C@@H]2O[C@H](CO[C@@H]3OC[C@H](O)[C@H](O)[C@H]3O)[C@@H](OC(=O)/C=C/c3ccc(O)c(OC)c3)[C@H](O[C@@H]3O[C@@H](C)[C@H](O)[C@@H](O)[C@H]3O)[C@H]2O)cc1O [Angoroside C, angoroside C]	1870
O=C(/C=C/c1ccc(O)cc1)c1ccc(O)cc1O	1060
O=C(/C=C/c1ccc(O)c(O)c1)O[C@@H]1C[C@](O)(C(=O)O)C[C@@H](O)[C@H]1O	1260

Could you now look at the following molecule, please?
Name the recorded AUC(0-inf) of the molecule listed here: C=C[C@H]1[C@H](O[C@@H]2O[C@H](CO)[C@@H](O)[C@H](O)[C@H]2O)OC=C2C(=O)OCC[C@]21O
5400

----------
Listed next: entries and their corresponding Vz/F.
test: Pharmacokinetic study in atherosclerosis (AS) model ApoE−/− mice after oral administration of SMYAD; type: in vivo, mouse; details: AS mice, plasma, SMYAD intragastric 35 g/kg/d for seven days, mean ± SD, n = 5
Entry rule: numbers only, all in L/mg.

Name the recorded Vz/F of the compound listed here: COc1ccc(CCO[C@@H]2O[C@H](CO[C@@H]3OC[C@H](O)[C@H](O)[C@H]3O)[C@@H](OC(=O)/C=C/c3ccc(O)c(OC)c3)[C@H](O[C@@H]3O[C@@H](C)[C@H](O)[C@@H](O)[C@H]3O)[C@H]2O)cc1O [Angoroside C, angoroside C]
126.00

Name the recorded Vz/F of the compound listed here: O=C(/C=C/c1ccc(O)c(O)c1)O[C@@H]1C[C@](O)(C(=O)O)C[C@@H](O)[C@H]1O
302.49

Name the recorded Vz/F of the compound listed here: O=C(/C=C/c1ccc(O)cc1)c1ccc(O)cc1O
658.87

Name the recorded Vz/F of the compound listed here: C=C[C@H]1[C@H](O[C@@H]2O[C@H](CO)[C@@H](O)[C@H](O)[C@H]2O)OC=C2C(=O)OCC[C@]21O
55.16

----------
Assay: Pharmacokinetic study in atherosclerosis (AS) model ApoE−/− mice after oral administration of SMYAD
Type: in vivo, mouse
Conditions: male, ApoE−/− on a C57BL/6 background, mouse, in vivo, po, 35 g/kg/day
Protocol: Male C57BL/6J mice and ApoE^−/− mice on a C57BL/6 background (7 weeks old, 18–22 g) were purchased from Beijing Vital River Laboratory Animal Technology Co., Ltd. (Beijing, China, Certificate No.: SCXK (Jing) 2016-0006). […] A Vanquish UHPLC™ system (Thermo Fisher Scientific Inc., USA) was used for the analysis. […] The quantitative analysis gradient program was as follows: 0-1 min, 0 B; 1–6 min, 0–100% B; 6–12 min, 100% B; 12–12.1 min, 100%-0 B; 12.1–15 min, 0 B. The injection volume was 5 μL. […]
ENDPOINT LABEL: half-life
Returns: string containing the numeric result and its unit.

O=C1C[C@@H](c2ccc(O[C@@H]3O[C@H](CO)[C@@H](O)[C@H](O)[C@H]3O)cc2)Oc2cc(O)ccc21 [Liquiritin, liquiritin]	13.5 h

Could you now look at the following compound, please?
Name the recorded half-life of the compound listed here: C=C[C@H]1[C@H](O[C@@H]2O[C@H](CO)[C@@H](O)[C@H](O)[C@H]2O)OC=C2C(=O)OCC[C@H]21 [Sweroside, sweroside]
6.56 h
